experiment: Components of the Cytosolic LPS Sensing Pathway: Gene Identification via Genome-wide siRNA Screen; details: RAW264.7 macrophages, IL-1a HTRF, actives lie on both sides, screened at 100 nM (by protocol), cells primed 5 h with Pam3CSK4 first
The whole screen tested about 53,000 sequences, of which about 3,700 (7%) were called active. The full list was thinned out, with actives kept by preference.
Please respond with criterion met when measured z-score is strictly beneath 0.5, and with criterion not met in all other cases.

{"CHAIN SEQUENCE": "GGUCUACGCGCUCUAUGAATT against Gpr150", "CLASS NAME": "criterion met"}
{"CHAIN SEQUENCE": "GGUCAACAUUAAAAUACUGTT against Map2k4", "CLASS NAME": "criterion met"}
{"CHAIN SEQUENCE": "GGACAAGAUGAUCUGCCUATT against Lrrc8a", "CLASS NAME": "criterion not met"}
{"CHAIN SEQUENCE": "AUCUCUCGGUGGUGGACUGTT against Olfr1474", "CLASS NAME": "criterion not met"}
{"CHAIN SEQUENCE": "AGUGUAACUGCAGAAGCCUTT against Olfr207", "CLASS NAME": "criterion met"}
{"CHAIN SEQUENCE": "GGAAAGAGAUUCUCUUCUATT against Nsun2", "CLASS NAME": "criterion met"}
{"CHAIN SEQUENCE": "GGGUCUCAAAGCAGUUUUUTT against Rhoj", "CLASS NAME": "criterion not met"}
{"CHAIN SEQUENCE": "GGUUCAGAAGUUUGGGAGATT against Mrpl48", "CLASS NAME": "criterion not met"}
{"CHAIN SEQUENCE": "GGACAAGGAGUAUUAUGUGTT against Nrxn3", "CLASS NAME": "criterion met"}
{"CHAIN SEQUENCE": "GGAAGUGGAGGAAAAGAAGTT against Pdcd7", "CLASS NAME": "criterion met"}
{"CHAIN SEQUENCE": "CGGAAAAGAUCCCUAUUGUTT against Adam5", "CLASS NAME": "criterion met"}
{"CHAIN SEQUENCE": "GGCUUUCCCAAAGACUUCUTT against Col11a2", "CLASS NAME": "criterion not met"}
{"CHAIN SEQUENCE": "GGCGUAACCUAACAUGGGATT against Clec1b", "CLASS NAME": "criterion met"}
{"CHAIN SEQUENCE": "GGAUUUACCUUACAAAAGUTT against Aff2", "CLASS NAME": "criterion not met"}
{"CHAIN SEQUENCE": "GGCGAAUGCGCUUCUGAUATT against BC053393", "CLASS NAME": "criterion not met"}
{"CHAIN SEQUENCE": "CCAUCAAGAUCUCUCAGUATT against A630091E08Rik", "CLASS NAME": "criterion met"}
{"CHAIN SEQUENCE": "CCCACAGGGAUUUAUUUAUTT against Slc37a1", "CLASS NAME": "criterion met"}
{"CHAIN SEQUENCE": "GGGCAUCAUGAAACUAUGUTT against Kbtbd4", "CLASS NAME": "criterion met"}
{"CHAIN SEQUENCE": "CCUUUUUGCUGAAUGUGGATT against Aard", "CLASS NAME": "criterion not met"}
{"CHAIN SEQUENCE": "CCUGGAUCAGCAAUCCACATT against Lpxn", "CLASS NAME": "criterion met"}
{"CHAIN SEQUENCE": "CGCUUUAGUGACUUUCAAATT against Metrnl", "CLASS NAME": "criterion met"}
{"CHAIN SEQUENCE": "GGAAGAACGACAAGAACAUTT against Tgfbr2", "CLASS NAME": "criterion not met"}
{"CHAIN SEQUENCE": "GGGUGAAGAUUCUCUACAATT against Dctn3", "CLASS NAME": "criterion met"}
{"CHAIN SEQUENCE": "GGCCAAGACCUCAGAGAUUTT against Apoa2", "CLASS NAME": "criterion met"}
{"CHAIN SEQUENCE": "GCCAGGAUCCAUCAAUUCCTT against Olfr376", "CLASS NAME": "criterion met"}
